- measurement.protocol: Displacement of [3H]ifenprodil from recombinant human GluN1A/GluN2B expressed in mouse L-M(TK-) cell membranes after 120 mins by microbeta scintillation counting method
- Design: species or system Membrane
pKi: −log10 of the molar value.
Recorded pKi values for a group of molecules are listed next.
value.kind: pKi

>>> print(df.to_string())
                                   molecule  endpoint_value
0  O[C@H](CN1[C@@H]2CC[C@H]1C[C@H](Cc1ccc(F)cc1)C2)c1ccccc1            8.72
1  O[C@H](CN1[C@@H]2CC[C@H]1C/C(=C\c1ccc(F)cc1)C2)c1ccccc1            8.54
2  C[C@H]([C@H](O)c1ccc(O)cc1)N1CCC(Cc2ccccc2)CC1            8.24
3  O[C@@H](CN1[C@@H]2CC[C@H]1C[C@@H](Cc1ccccc1)C2)c1ccccc1            8.68
4  O[C@H](CN1[C@@H]2CC[C@H]1C[C@@H](Cc1ccc(F)cc1)C2)c1ccccc1            7.77
5  O[C@H](CN1[C@@H]2CC[C@H]1C/C(=C\c1ccccc1)C2)c1ccccc1            8.74
6  O[C@@H](CN1[C@@H]2CC[C@H]1C/C(=C\c1ccccc1)C2)c1ccc(F)cc1            8.85
7  OC(CN1CCC(Cc2ccc(F)cc2)CC1)c1ccc(Cl)cc1 (centres undefined) [ELIPRODIL]            7.89
8  O[C@H](CN1[C@@H]2CC[C@H]1C/C(=C/c1ccccc1)C2)c1ccccc1            7.68

----------
- measurement.protocol: Displacement of [3H]ifenprodil from recombinant human GluN1A/GluN2B expressed in mouse L-M(TK-) cell membranes after 120 mins by microbeta scintillation counting method
- Set-up: species or system Membrane
pKi: −log10 of the molar value.
Label rule, in plain words: pKi of 8 and up is 1, under 8 is -1.

                                   compound  class_label
0  O[C@@H](CN1[C@@H]2CC[C@H]1C/C(=C\c1ccc(F)cc1)C2)c1ccccc1            1
1  O[C@@H](CN1[C@@H]2CC[C@H]1C/C(=C\c1ccc(Cl)cc1)C2)c1ccccc1            1
2  O[C@@H](CN1[C@@H]2CC[C@H]1C/C(=C\c1ccccc1)C2)c1ccccc1            1
3  O[C@@H](CN1[C@@H]2CC[C@H]1C[C@H](Cc1ccccc1)C2)c1ccccc1           -1
4  O[C@H](CN1[C@@H]2CC[C@H]1C[C@H](Cc1ccccc1)C2)c1ccccc1 (mixture of isomers)            1

----------
- measurement.protocol: Displacement of [3H]ifenprodil from recombinant human GluN1A/GluN2B expressed in mouse L-M(TK-) cell membranes after 120 mins by microbeta scintillation counting method
- Parameters: species or system Membrane
pKi: −log10 of the molar value.
value.kind: pKi

                               entry_smiles  value_kind  endpoint_value
0  O[C@@H](CN1[C@@H]2CC[C@H]1C/C(=C/c1ccccc1)C2)c1ccccc1         pKi            7.47
1  O[C@@H](CN1[C@@H]2CC[C@H]1C[C@@H](Cc1ccc(F)cc1)C2)c1ccc(F)cc1         pKi            9.10
2  O[C@@H](CN1[C@@H]2CC[C@H]1C/C(=C\c1ccc(F)cc1)C2)c1ccc(F)cc1         pKi            9.00
3  O[C@@H](CN1[C@@H]2CC[C@H]1C[C@H](Cc1ccc(F)cc1)C2)c1ccc(F)cc1         pKi            8.23

----------
- measurement.protocol: Displacement of [3H]ifenprodil from recombinant human GluN1A/GluN2B expressed in mouse L-M(TK-) cell membranes after 120 mins by microbeta scintillation counting method
- Design: species or system Membrane
pKi: −log10 of the molar value.
value.kind: pKi

>>> print(df.to_string())
                               entry_smiles  value_kind  endpoint_value
0  O[C@H](CN1[C@@H]2CC[C@H]1C/C(=C\c1ccc(Cl)cc1)C2)c1ccccc1         pKi            8.36
1  O[C@@H](CN1[C@@H]2CC[C@H]1C[C@H](Cc1ccccc1)C2)c1ccc(F)cc1         pKi            8.28
2  O[C@@H](CN1[C@@H]2CC[C@H]1C/C(=C/c1ccccc1)C2)c1ccc(F)cc1         pKi            7.54
3  O[C@@H](CN1[C@@H]2CC[C@H]1C[C@@H](Cc1ccccc1)C2)c1ccc(F)cc1         pKi            8.77
4  O[C@@H](CN1[C@@H]2CC[C@H]1C/C(=C/c1ccc(F)cc1)C2)c1ccc(F)cc1         pKi            8.15
5  O[C@@H](CN1[C@@H]2CC[C@H]1C/C(=C/c1ccc(F)cc1)C2)c1ccccc1         pKi            7.80
6  O[C@H](CN1[C@@H]2CC[C@H]1C/C(=C/c1ccc(Cl)cc1)C2)c1ccccc1         pKi            7.70
7  O[C@@H](CN1[C@@H]2CC[C@H]1C[C@@H](Cc1ccc(F)cc1)C2)c1ccccc1         pKi            9.15

----------
Recorded Ki values for a group of compounds are listed next.
- experimental.target: Sigma intracellular receptor 2 (Rattus norvegicus)
- Sequence (Q5U3Y7 whole entry): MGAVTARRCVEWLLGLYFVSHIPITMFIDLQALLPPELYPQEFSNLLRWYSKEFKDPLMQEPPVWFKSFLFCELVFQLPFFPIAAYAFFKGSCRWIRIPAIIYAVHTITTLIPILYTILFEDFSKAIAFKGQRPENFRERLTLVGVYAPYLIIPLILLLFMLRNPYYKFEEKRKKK
- measurement.protocol: Displacement of [3H]-DTG from sigma 2 receptor in rat liver membrane measured after 120 mins by microbeta counting analysis
value.kind: Ki (nM)

                                    compound  value_kind  endpoint_value
 0  O[C@H](CN1[C@@H]2CC[C@H]1C/C(=C/c1ccccc1)C2)c1ccccc1          Ki              27
 1  O[C@@H](CN1[C@@H]2CC[C@H]1C/C(=C\c1ccccc1)C2)c1ccc(F)cc1          Ki              11
 2  O[C@@H](CN1[C@@H]2CC[C@H]1C[C@@H](Cc1ccccc1)C2)c1ccc(F)cc1          Ki               6
 3  O[C@@H](CN1[C@@H]2CC[C@H]1C/C(=C/c1ccc(Cl)cc1)C2)c1ccccc1          Ki              22
 4  O[C@H](CN1[C@@H]2CC[C@H]1C[C@H](Cc1ccc(F)cc1)C2)c1ccccc1          Ki              11
 5  O[C@@H](CN1[C@@H]2CC[C@H]1C/C(=C/c1ccccc1)C2)c1ccc(F)cc1          Ki              47
 6  O[C@H](CN1[C@@H]2CC[C@H]1C[C@@H](Cc1ccc(F)cc1)C2)c1ccccc1          Ki              19
 7  O[C@H](CN1[C@@H]2CC[C@H]1C/C(=C/c1ccc(Cl)cc1)C2)c1ccccc1          Ki              47
 8  O[C@@H](CN1[C@@H]2CC[C@H]1C[C@@H](Cc1ccc(F)cc1)C2)c1ccc(F)cc1          Ki             5.9
 9  O[C@@H](CN1[C@@H]2CC[C@H]1C/C(=C\c1ccccc1)C2)c1ccccc1          Ki             6.6
10  O[C@H](CN1[C@@H]2CC[C@H]1C[C@@H](Cc1ccccc1)C2)c1ccccc1          Ki              10
11  O[C@@H](CN1[C@@H]2CC[C@H]1C[C@H](Cc1ccc(F)cc1)C2)c1ccc(F)cc1          Ki              15
12  O[C@@H](CN1[C@@H]2CC[C@H]1C[C@H](Cc1ccccc1)C2)c1ccccc1          Ki              14
13  O[C@@H](CN1[C@@H]2CC[C@H]1C/C(=C/c1ccccc1)C2)c1ccccc1          Ki             101
14  O[C@@H](CN1[C@@H]2CC[C@H]1C/C(=C/c1ccc(F)cc1)C2)c1ccc(F)cc1          Ki              21
15  O[C@@H](CN1[C@@H]2CC[C@H]1C[C@@H](Cc1ccc(F)cc1)C2)c1ccccc1          Ki              22
16  O[C@@H](CN1[C@@H]2CC[C@H]1C[C@@H](Cc1ccccc1)C2)c1ccccc1          Ki               9
17  O[C@H](CN1[C@@H]2CC[C@H]1C[C@H](Cc1ccccc1)C2)c1ccccc1 (mixture of isomers)          Ki              11
18  O[C@H](CN1[C@@H]2CC[C@H]1C/C(=C/c1ccc(F)cc1)C2)c1ccccc1          Ki              27
19  O[C@@H](CN1[C@@H]2CC[C@H]1C[C@H](Cc1ccccc1)C2)c1ccc(F)cc1          Ki              10
20  O[C@H](CN1[C@@H]2CC[C@H]1C/C(=C\c1ccccc1)C2)c1ccccc1          Ki              12
21  O[C@H](CN1[C@@H]2CC[C@H]1C/C(=C\c1ccc(Cl)cc1)C2)c1ccccc1          Ki              30
22  O[C@@H](CN1[C@@H]2CC[C@H]1C/C(=C\c1ccc(Cl)cc1)C2)c1ccccc1          Ki              15
23  O[C@H](CN1[C@@H]2CC[C@H]1C/C(=C\c1ccc(F)cc1)C2)c1ccccc1          Ki              11
24  O[C@@H](CN1[C@@H]2CC[C@H]1C/C(=C\c1ccc(F)cc1)C2)c1ccc(F)cc1          Ki              15
25  O[C@@H](CN1[C@@H]2CC[C@H]1C[C@H](Cc1ccc(F)cc1)C2)c1ccccc1          Ki              23
